tested on: HL-60(TB) leukemia; experiment: NCI-60 one-dose screen, 48 h; details: 10 µM unless noted
About 83,000 compounds went through this panel and 20% of them were active in at least one assay; those are over-represented in the sample as a whole. Calls of active or inactive are those of the source. The calls were made as follows: active = growth percent below 10; inactive = the rest.
Response enum: class 1 (active), class 0 (inactive)

// known answers, use as guide
# Molecule, Assigned category
rows = [
    ("CC(=O)c1c(C)nc2ccccc2c1/C=C/c1ccc(F)cc1", "class 0"),
    ("NC(C(=O)O)C(O)c1ccco1 (centres undefined)", "class 0"),
    ("Cc1nc([P+](c2ccccc2)(c2ccccc2)c2ccccc2)c(Sc2sc(-c3ccccc3)nc2[P+](c2ccccc2)(c2ccccc2)c2ccccc2)o1", "class 1"),
    ("COc1ccc(Cl)cc1Nc1nc(C(F)(F)F)ccc1C(=O)N/N=C/c1ccc(Cl)cc1", "class 1"),
    ("CCOc1ccccc1C(=O)/C=C/c1cc2ccccc2[nH]c1=O", "class 1"),
]

Exercise: Look up the recorded call for COc1ccc(NC(=O)CSc2oc(-c3ccccc3)nc2S(=O)(=O)c2ccc(Cl)cc2)c(OC)c1 in this test.
Key: class 0

Exercise: Look up the recorded call for COc1ccc(-c2conc2-c2ccccc2)cc1 in this test.
Key: class 0

Exercise: Look up the recorded call for C=C1C(=O)O[C@H]2[C@H]1CC/C(C=Nc1c(N)cc(C(F)(F)F)cc1Br)=C\CC[C@@]1(C)O[C@@H]21 in this test.
Key: class 1

Exercise: Look up the recorded call for COc1cc(NC(=O)c2cccc(-c3cc(=O)c4c(O)c(OC)c(OC)cc4o3)c2)cc(OC)c1OC in this test.
Key: class 0

Exercise: Look up the recorded call for S=c1nc(CS)[nH]c2ccccc12 in this test.
Key: class 0

Exercise: Look up the recorded call for NC(=O)c1c(NC(=O)c2cccs2)sc2c1CCC(=O)C2 in this test.
Key: class 1

Exercise: Look up the recorded call for COc1cc2c(cc1OCCCN1CCN(CCCn3c4ccccc4c4ccccc43)CC1)N=C[C@@H]1CCCN1C2=O in this test.
Key: class 1

Exercise: Look up the recorded call for O=C(Nc1ccccc1-c1nc2ccccc2c(=O)[nH]1)c1cc2ccccc2[nH]1 in this test.
Key: class 0

Exercise: Look up the recorded call for c1ccc2cc(Cn3c(-c4cccc5ccccc45)[n+](Cc4ccc5ccccc5c4)c4c5ccccc5c5ccccc5c43)ccc2c1 in this test.
Key: class 1
